Molecular target: T1, Anti-hCG antibody(m)
T1 construct: also called mouse IgG (hCG)
Assay: labelled peptide on antibody immobilised on microplate; antigen hCG
Ends that are not written are not given here. FAM = carboxyfluorescein (FAM) fluorescent label
Known change (%) of fluorescence in solution (S) of a selection of binders

TYLEWYPQKPGQSPKLLIYK (not fully specified (N-terminus), Synthetic 20-mer homologous to the FR2 region of the light chain; The label differs between experiments; also called L1 switching peptide; first peptide compound L1) [L1 peptide] ... 187%
VYYCAREPTGTGIYFDVWGK (not fully specified (N-terminus), Synthetic 20-mer homologous to the FR3 or FR4 region of the heavy chain; The label differs between experiments; also called H2 switching peptide; fourth peptide compound H2) [H2 peptide] ... 416%

The value of change (%) of fluorescence in solution (S) measured for the binder SYWIHWVKQRPGQGLEWIGE (not fully specified (N-terminus), Synthetic 20-mer homologous to the FR2 region of the heavy chain; The fluorescent label differs between experiments; also called H1 switching peptide; third peptide compound H1) [H1 peptide] turned out to be 206%

// recorded change (%) of fluorescence in solution (S) for {FAM}-VYYCFQGSHVPFTK (Synthetic 14-mer homologous to the FR3 or FR4 region of the light chain; also called L2 switching peptide; second peptide compound L2) [L2 peptide] : 456%
